Test system: human lung cancer cell line A549
Experiment: MTT anti-proliferative assay, A549
Type: cell-based
Details: Homo sapiens, A549; MTT assay, 48 h of treatment, three independent experiments; read-out: IC50 (μM) A549
Description: The anti-proliferative activities of 3a–k against human lung cancer cell line (A549), human hepatoma cell line (HepG2), and human breast cancer cell line (MCF-7) were examined. […] The MTT (Beyotime, Shanghai, China) colorimetric method was used to test the antitumor activity of the synthetic products. […] The optical density (OD) values of the compound and the control product were determined at 490 nm wavelength with enzyme-labeled apparatus.
Listed compounds paired with reported IC50
measurementKind: IC50 (µM)

INSERT INTO measurements (compound, measurementkind, unitspec, reported) VALUES
  ('C=C(C)[C@@H]1CC[C@]2(C)CC[C@]3(C)C(CCC4[C@@]5(C)CC[C@H](OC(=O)N6CCN(C)CC6)C(C)(C)C5CC[C@]43C)C12 (stereo partly drawn)', 'IC50', 'µM', 5.74),
  ('C=C(C)[C@@H]1CC[C@]2(C)CC[C@]3(C)C(CCC4[C@@]5(C)CC[C@H](OC(=O)N(CCC)CCC)C(C)(C)C5CC[C@]43C)C12 (stereo partly drawn) [Compound 3c, Lupeol-3-(dipropyl) Carbamate]', 'IC50', 'µM', 15.5),
  ('C=C(C)C1CCC2(C)CCC3(C)C(CCC4C5(C)CCC(OC(=O)N6CCN(c7ccncc7)CC6)C(C)(C)C5CCC43C)C12 (stereo not drawn)', 'IC50', 'µM', 12.1),
  ('C=C(C)[C@@H]1CC[C@]2(C)CC[C@]3(C)C(CCC4[C@@]5(C)CC[C@H](OC(=O)N6CCCC6)C(C)(C)C5CC[C@]43C)C12 (stereo partly drawn) [Compound 3d, Lupeol-3-(pyrrolidine-1-carboxylate)]', 'IC50', 'µM', 11.3),
  ('C=C(C)[C@@H]1CC[C@]2(C)CC[C@]3(C)C(CCC4[C@@]5(C)CC[C@H](OC(=O)N6CCOCC6)C(C)(C)C5CC[C@]43C)C12 (stereo partly drawn) [Compound 3f, Lupeol-3-(morpholine-1-carboxylate)]', 'IC50', 'µM', 6.76),
  ('C=C(C)[C@@H]1CC[C@]2(C)CC[C@]3(C)[C@H](CC[C@@H]4[C@@]5(C)CC[C@H](O)C(C)(C)[C@@H]5CC[C@]43C)[C@@H]12', 'IC50', 'µM', 35.9),
  ('C=C(C)[C@@H]1CC[C@]2(C)CC[C@]3(C)C(CCC4[C@@]5(C)CC[C@H](OC(=O)N6CCSCC6)C(C)(C)C5CC[C@]43C)C12 (stereo partly drawn) [Compound 3g, Lupeol-3-(thiomorpholine-1-carboxylate)]', 'IC50', 'µM', 8.19),
  ('C=C(C)[C@@H]1CC[C@]2(C)CC[C@]3(C)C(CCC4[C@@]5(C)CC[C@H](OC(=O)N6CCCCC6)C(C)(C)C5CC[C@]43C)C12 (stereo partly drawn) [Compound 3e, Lupeol-3-(piperidine-1-carboxylate)]', 'IC50', 'µM', 13.2),
  ('C=C(C)[C@@H]1CC[C@]2(C)CC[C@]3(C)C(CCC4[C@@]5(C)CC[C@H](OC(=O)N6CCNCC6)C(C)(C)C5CC[C@]43C)C12 (stereo partly drawn) [Compound 3h, Lupeol-3-(piperazine-1-carboxylate)]', 'IC50', 'µM', 12);
